- tested system: UniProt P30958
- Sequence (P30958 whole entry): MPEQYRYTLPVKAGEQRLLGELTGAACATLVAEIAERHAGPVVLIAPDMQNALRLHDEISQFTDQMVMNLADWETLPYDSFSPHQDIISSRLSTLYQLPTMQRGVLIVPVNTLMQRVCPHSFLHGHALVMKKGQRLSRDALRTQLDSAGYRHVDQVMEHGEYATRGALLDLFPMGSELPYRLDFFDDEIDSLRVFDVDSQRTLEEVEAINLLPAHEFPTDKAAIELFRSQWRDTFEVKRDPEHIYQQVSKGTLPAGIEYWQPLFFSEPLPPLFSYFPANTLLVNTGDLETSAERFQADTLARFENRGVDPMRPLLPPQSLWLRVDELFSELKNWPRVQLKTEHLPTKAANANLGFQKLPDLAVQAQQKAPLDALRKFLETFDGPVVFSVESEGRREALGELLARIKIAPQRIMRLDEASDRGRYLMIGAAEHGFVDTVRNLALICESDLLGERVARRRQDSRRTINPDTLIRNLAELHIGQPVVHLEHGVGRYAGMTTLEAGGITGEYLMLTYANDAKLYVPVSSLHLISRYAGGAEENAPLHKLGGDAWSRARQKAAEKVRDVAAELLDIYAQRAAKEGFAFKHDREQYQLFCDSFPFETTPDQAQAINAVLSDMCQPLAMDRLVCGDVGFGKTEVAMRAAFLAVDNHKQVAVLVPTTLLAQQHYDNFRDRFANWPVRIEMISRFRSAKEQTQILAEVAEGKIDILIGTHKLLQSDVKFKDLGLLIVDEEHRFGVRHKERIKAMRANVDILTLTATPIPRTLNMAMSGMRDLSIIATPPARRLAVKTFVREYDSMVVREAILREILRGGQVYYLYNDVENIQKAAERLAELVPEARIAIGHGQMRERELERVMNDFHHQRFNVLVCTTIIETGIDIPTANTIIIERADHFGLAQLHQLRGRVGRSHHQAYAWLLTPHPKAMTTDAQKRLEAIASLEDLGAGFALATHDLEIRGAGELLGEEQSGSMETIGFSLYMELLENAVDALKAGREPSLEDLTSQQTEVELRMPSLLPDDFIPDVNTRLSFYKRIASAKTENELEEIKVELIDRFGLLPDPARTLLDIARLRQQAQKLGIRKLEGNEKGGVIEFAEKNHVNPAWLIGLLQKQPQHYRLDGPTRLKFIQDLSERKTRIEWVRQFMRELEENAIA
property: pKd
In textbook form, pKd equals minus log to base ten of the concentration in mol/L.

Lookup: Return reported pKd; argument: Nc1ncnc2c1ncn2[C@@H]1O[C@H](COP(=O)(O)OP(=O)(O)OP(=O)(O)O)[C@@H](O)[C@H]1O [ATP]
Found: 3.84

Data origin: paper PMC12037726
